target: Cytochrome P450 3A4 (Homo sapiens, UniProt P08684); assay: Inhibition of CYP3A4 (unknown origin) at 1 uM; assay type: ADME
Sequence (P08684 whole entry): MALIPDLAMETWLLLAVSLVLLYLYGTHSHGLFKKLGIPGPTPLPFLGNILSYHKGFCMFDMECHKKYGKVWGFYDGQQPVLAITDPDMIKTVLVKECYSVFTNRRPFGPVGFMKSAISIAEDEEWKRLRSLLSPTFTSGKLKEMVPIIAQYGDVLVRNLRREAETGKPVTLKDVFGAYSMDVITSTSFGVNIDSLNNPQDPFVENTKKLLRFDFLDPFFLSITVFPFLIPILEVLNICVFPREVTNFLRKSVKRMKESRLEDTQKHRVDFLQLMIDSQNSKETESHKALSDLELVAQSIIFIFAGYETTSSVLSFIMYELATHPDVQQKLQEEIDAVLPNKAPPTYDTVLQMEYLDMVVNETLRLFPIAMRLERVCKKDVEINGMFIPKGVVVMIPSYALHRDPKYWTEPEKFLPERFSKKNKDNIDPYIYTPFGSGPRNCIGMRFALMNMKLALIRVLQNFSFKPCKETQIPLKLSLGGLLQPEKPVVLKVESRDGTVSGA

{"columns": ["chemical smiles", "tested system", "inhibition (INH)"],
 "data": [
  ["c1ccc([C@H]2CCC[C@@H](CCNCC3CCCCC3)O2)cc1", "Cytochrome P450 3A4 (Homo sapiens, UniProt P08684)", "Not Active"],
  ["c1ccc(CNCC[C@@H]2CCC[C@H](c3ccccc3)O2)cc1", "Cytochrome P450 3A4 (Homo sapiens, UniProt P08684)", "Not Active"],
  ["c1ccc([C@@H]2CCC[C@H](CCNCC3CCCCC3)O2)cc1", "Cytochrome P450 3A4 (Homo sapiens, UniProt P08684)", "Not Active"],
  ["c1ccc(CNCC[C@H]2CCC[C@@H](c3ccccc3)O2)cc1", "Cytochrome P450 3A4 (Homo sapiens, UniProt P08684)", "Not Active"]
]}

* * *

target: Sigma non-opioid intracellular receptor 1 (Cavia porcellus)
Sequence (Q60492 whole entry): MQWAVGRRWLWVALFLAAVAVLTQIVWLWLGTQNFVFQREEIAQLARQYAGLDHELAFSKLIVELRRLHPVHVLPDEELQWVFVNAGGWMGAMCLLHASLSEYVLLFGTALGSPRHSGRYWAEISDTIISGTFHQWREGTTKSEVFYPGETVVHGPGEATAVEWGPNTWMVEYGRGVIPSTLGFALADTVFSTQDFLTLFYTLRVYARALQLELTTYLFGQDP
We'd kindly ask you to apply these Ki classes: class 1: < 5 nM; class 2: ≥ 5 nM and < 60 nM; class 3: ≥ 60 nM

Exam item: Lab note: which band did CN(C)CC[C@H]1CCC[C@@H](c2ccccc2)O1 land in?
Marked response: class 3

Exam item: Record c1ccc(CNCC[C@@H]2CCC[C@H](c3ccccc3)O2)cc1 — which class?
Marked response: class 1

* * *

target: Glutamate [NMDA] receptor (Homo sapiens) (UniProt Q05586+Q12879+Q13224+O15399+O60391+Q14957+Q8TCU5); assay: Displacement of [3H]-(+)-MK801 from PCP binding site of NMDA receptor (unknown origin); format: protein-complex assay; settings: dose 1.0 µM
For each record, write down the corresponding inhibition.
One number for each entry, in %.

As a guide, the following entries are already answered.
{"columns": ["chemical smiles", "assay metric", "recorded measurement"],
 "data": [
  ["c1ccc([C@@H]2CCC[C@H](CCNCC3CCCCC3)O2)cc1", "inhibition", 7],
  ["CN(C)CC[C@H]1CCC[C@@H](c2ccccc2)O1", "inhibition", 31],
  ["CN(C)CC[C@@H]1CCC[C@H](c2ccccc2)O1", "inhibition", 37]
]}

Look at each compound and report its inhibition.
1. c1ccc(CCCCNCC[C@H]2CCC[C@@H](c3ccccc3)O2)cc1
2. NCC[C@@H]1CCC[C@H](c2ccccc2)O1
3. NCC[C@H]1CCC[C@@H](c2ccccc2)O1
4. c1ccc([C@H]2CCC[C@@H](CCNCC3CCCCC3)O2)cc1
5. c1ccc(CCCCNCC[C@@H]2CCC[C@H](c3ccccc3)O2)cc1
6. c1ccc([C@H]2CCC[C@@H](CCN3CCN(c4ccccc4)CC3)O2)cc1

Marked response:
1: 42; 2: 14; 3: 43; 4: 33; 5: 43; 6: 7

* * *

Exercise: for every item that follows, state its recorded pKi.
Molecular target: Sigma intracellular receptor 2 (Rattus norvegicus)
Sequence (Q5U3Y7 whole entry): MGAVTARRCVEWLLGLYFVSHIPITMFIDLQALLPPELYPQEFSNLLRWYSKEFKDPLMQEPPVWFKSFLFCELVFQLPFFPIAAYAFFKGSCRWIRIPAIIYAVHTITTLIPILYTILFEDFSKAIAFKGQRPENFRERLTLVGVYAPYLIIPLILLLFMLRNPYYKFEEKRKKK
Test: Displacement of [3H]-di-o-tolylguanidine from sigma2 receptor in rat liver membrane by solid scintillation counting method
Give bare numbers, as −log10 of the molar value.

Below are worked cases with known answers.
{"columns": ["chemical smiles", "pKi"],
 "data": [
  ["c1ccc([C@@H]2CCC[C@H](CCN3CCN(c4ccccc4)CC3)O2)cc1", 6.79],
  ["c1ccc([C@H]2CCC[C@@H](CCN3CCCC3)O2)cc1", 6.94],
  ["c1ccc([C@@H]2CCC[C@H](CCN3CCCC3)O2)cc1", 6.77]
]}

Batch of 7 compounds: report pKi for each.
1. CN(C)CC[C@H]1CCC[C@@H](c2ccccc2)O1
2. c1ccc(CCCCNCC[C@@H]2CCC[C@H](c3ccccc3)O2)cc1
3. CN(C)CC[C@@H]1CCC[C@H](c2ccccc2)O1
4. c1ccc([C@@H]2CCC[C@H](CCNCC3CCCCC3)O2)cc1
5. c1ccc([C@H]2CCC[C@@H](CCN3CCN(c4ccccc4)CC3)O2)cc1
6. c1ccc([C@H]2CCC[C@@H](CCNCC3CCCCC3)O2)cc1
7. c1ccc(CCCCNCC[C@H]2CCC[C@@H](c3ccccc3)O2)cc1

Marked response:
5.40
6.63
5.64
7.44
6.88
7.24
6.42

Could you report pKi for every entry in the following list?
1. c1ccc(CNCC[C@H]2CCC[C@@H](c3ccccc3)O2)cc1
2. c1ccc(CNCC[C@@H]2CCC[C@H](c3ccccc3)O2)cc1

Marked response:
1: 6.37; 2: 6.42
